# System: K562
# experimentNotes: Growth inhibition of human K562 cells at 50 uM after 48 hrs by SRB assay
# Assay type: functional
# conditionsUsed: K562, 48 h, read-out: GI
Some compounds, each annotated with its measured inhibition of growth at 50 µM.
Units required after the number.

Item CCCCCCCCCCCC1c2cc(c(OCC(=O)NCCN)cc2OCC(=O)NCCN)C(CCCCCCCCCCC)c2cc(c(OCC(=O)NCCN)cc2OCC(=O)NCCN)C(CCCCCCCCCCC)c2cc(c(OCC(=O)NCCN)cc2OCC(=O)NCCN)C(CCCCCCCCCCC)c2cc1c(OCC(=O)NCCN)cc2OCC(=O)NCCN (centres undefined) has what recorded inhibition of growth at 50 µM?
11.2%

// query: COC(=O)CN1C(=O)CN=C(c2ccccc2)c2cc([N+](=O)[O-])ccc21
30.6%

// query: COC(=O)CN1C(=O)CN=C(c2ccccc2F)c2cc(Cl)ccc21
27.2%

// query: CCCCCCCCCCCC1c2cc(c(OCC(=O)NCCN(CCC(=O)NCCN)CCC(=O)NCCN)cc2OCC(=O)NCCN(CCC(=O)NCCN)CCC(=O)NCCN)C(CCCCCCCCCCC)c2cc(c(OCC(=O)NCCN(CCC(=O)NCCN)CCC(=O)NCCN)cc2OCC(=O)NCCN(CCC(=O)NCCN)CCC(=O)NCCN)C(CCCCCCCCCCC)c2cc(c(OCC(=O)NCCN(CCC(=O)NCCN)CCC(=O)NCCN)cc2OCC(=O)NCCN(CCC(=O)NCCN)CCC(=O)NCCN)C(CCCCCCCCCCC)c2cc1c(OCC(=O)NCCN(CCC(=O)NCCN)CCC(=O)NCCN)cc2OCC(=O)NCCN(CCC(=O)NCCN)CCC(=O)NCCN (centres undefined)
100%
